Just for reference, patent US20230398102A1 is where these values come from.

- Method: Excipient compatibility: rifaximin solutions stored at various temperatures, chemical purity by HPLC
- Format: physicochemical
- Measurement Conditions: rifaximin in named solvent; T 2 weeks, 50° C.
Some compounds, each annotated with its measured Rifaximin % Label Claim (LC).

Some compounds with recorded Rifaximin % Label Claim (LC):
CCOCCOCCO    81.5 % Label Claim (LC)
CC(C)OC(=O)CCCCC(=O)OC(C)C [Diisopropyl adipate]    50.3 % Label Claim (LC)
CCCCCCCC/C=C\CCCCCCCC(=O)OCC(O)CO (centres unmarked) [Glyceryl monooleate (Type 40), Glyceryl monooleate]    48.9 % Label Claim (LC)
CCCCCCCC/C=C\CCCCCCCCO    95.2 % Label Claim (LC)

Now turn to the next compound.
Rifaximin % Label Claim (LC) reported for this compound CCCCC/C=C\C/C=C\CCCCCCCC(=O)OCC(O)CO (centres unmarked) [Glyceryl monolinoleate] : 97.4 % Label Claim (LC)

###

- Method: Excipient compatibility: rifaximin solutions stored at various temperatures, chemical purity by HPLC
- Format: physicochemical
- Measurement Conditions: rifaximin in named solvent; T 2 weeks, 50° C.
Value Type: Rifaximin % Label Claim (LC)

Some compounds with recorded Rifaximin % Label Claim (LC):
CCOC(=O)CCCCCCCCC(=O)OCC [Diethyl sebacate]    101.7 % Label Claim (LC)
CC(O)CO (stereo not shown)    95.7 % Label Claim (LC)
OCc1ccccc1    96.9 % Label Claim (LC)

Now turn to the next compound.
Rifaximin % Label Claim (LC) reported for this compound `OCCOCCOCCO` : 95.6 % Label Claim (LC)

###

- Method: Compatibility of individual excipients with hard gelatin capsule shells
- Assay type: physicochemical
- Measurement Conditions: Hard Gel Capsules; T 4 weeks, 25° C.
Value Type: Physical change (Yes or No)

Some compounds with recorded Physical change (Yes or No):
CCOCCOCCO    No
CCCCCCCC/C=C\CCCCCCCC(=O)OCC(O)CO (stereo not shown) [Glyceryl monooleate (Type 40), Glyceryl monooleate]    No
CCOC(=O)CCCCCCCCC(=O)OCC [Diethyl sebacate]    No
CCCCC/C=C\C/C=C\CCCCCCCC(=O)OCC(O)CO (stereo not shown) [Glyceryl monolinoleate]    No
OCc1ccccc1    Yes

Physical change (Yes or No) reported for this compound `OCCOCCOCCO` : Yes

Physical change (Yes or No) reported for this compound `CCCCCCCC/C=C\CCCCCCCCO` : No

###

- Method: Compatibility of individual excipients with hard gelatin capsule shells
- Format: physicochemical
- Measurement Conditions: Hard Gel Capsules; T 4 weeks, 40° C.
- Procedure: The physical compatibility of individual excipients with gelatin shell matrix was investigated. For hard gelatin capsules, solvent was filled into hard capsules and placed in scintillation vials. For soft gelatin capsules, each capsule was dipped into the excipient and then placed in scintillation vials. The vials were then subjected to various temperature conditions for up to 4 weeks. Capsules were then evaluated for physical changes (softening or hardening of capsule shell). […]
Value Type: Physical change (Yes or No)

Some compounds with recorded Physical change (Yes or No):
CCCCC/C=C\C/C=C\CCCCCCCC(=O)OCC(O)CO (stereo not shown) [Glyceryl monolinoleate]    No
CCOC(=O)CCCCCCCCC(=O)OCC [Diethyl sebacate]    No
CCCCCCCC/C=C\CCCCCCCCO [Oleyl alcohol]    No
CCCCCCCC/C=C\CCCCCCCC(=O)OCC(O)CO (stereo not shown) [Glyceryl monooleate (Type 40), Glyceryl monooleate]    No
CCOCCOCCO [Diethylene glycol monoethyl ether]    No
OCc1ccccc1 [Benzyl alcohol]    Yes

Now turn to the next compound.
Physical change (Yes or No) reported for this compound OCCOCCOCCO [Triethylene glycol] : Yes
